Provenance of the data: patent US20250129021A1

Reported IC50 values follow for various compounds
- Tested on: JAK1
- ASSAY_PROTOCOL: In vitro transcription-translation (IVTT) assay, JAK1 reporter
- Format: biochemical
- CONDITION: HeLa S3 lysate, sfGFP/mCherry ratio

Example cases with answers are listed next.
                               smiles_entry  observed_measurement
0  O=C(NCc1cccc(C2CNC2)c1)O[C@@H]1[C@@H](O)CN[C@@H]1Cc1ccc(-c2cnco2)cc1               < 10 µM
1  O=C(NCc1ccnc(N2CCC2)c1)O[C@@H]1[C@@H](O)CN[C@@H]1Cc1ccc(-c2cnco2)cc1               < 10 µM
2  O=C(NCCC1CCNCC1)O[C@@H]1[C@@H](O)CN[C@@H]1Cc1ccc(-c2cnco2)cc1               < 10 µM
3  O=C(NCc1cccc(F)c1)O[C@@H]1[C@@H](O)CN[C@@H]1Cc1ccc(-c2cnc(C(F)(F)F)s2)cc1           10 to 20 µM
4  O=C(NCCOC(F)(F)F)O[C@@H]1[C@@H](O)CN[C@@H]1Cc1ccc(-c2cnco2)cc1               < 10 µM

Consider the record given below.
Ask: Using the record for `O=C(NCC[C@@H]1CCCN1)O[C@@H]1[C@@H](O)CN[C@@H]1Cc1ccc(-c2cnco2)cc1` , report its IC50.
Reply: < 10 µM
